tested on: IICR (IP3 induced calcium release) in CHO cells; assay: Assay of IICR (IP3 induced calcium release)-inhibiting action; type: cell-based, Chinese hamster; conditions: Cricetulus griseus, CHO, test compound 100 μmol; CHO cells, 10 μM ATP; read-out: IICR level (percentage of inhibition)

| Compound | inhibition at 100 µM, % |
| --- | --- |
| CC(CN(CCO)C(C)C)C(=O)c1ccccc1F (stereo not shown) | 20 |
| Cc1cc(C(=O)CCN(CCO)C(C)C)c(C)s1 | 20 |
| O=C(CCNCCSSCCNCCC(=O)c1ccc(I)s1)c1ccc(I)s1 | 88 |
| CN(CCO)CCC(=O)c1ccc(Br)s1 | 80 |
| CC(CN(CCO)CCO)C(=O)c1ccc(F)cc1 (stereo not shown) | 20 |
| CC(C)N(CCO)CCC(=O)c1cccn1C | 0 |
| CC(CN(CCO)C(C)C)C(=O)c1ccc(F)cc1 (stereo not shown) | 0 |
| O=C(CCN(c1ccccc1)c1ccccc1)c1ccc2ccccc2c1 | 0 |
| CC(C)N(CCC(=O)c1ccc2ccccc2c1)Cc1ccccc1 | 70 |
| O=C(CCNC(CO)c1ccccc1)c1ccc(Br)s1 (stereo not shown) | 40 |
| CC(C)(C)N(CCC(=O)c1ccc(Cc2ccccc2)cc1)Cc1ccccc1 | 90 |
| O=C(CCN(CCO)Cc1ccccc1)c1ccc(Br)s1 | 40 |
| CC(C)(C)N(CCC(=O)c1sccc1Br)Cc1ccccc1 | 77 |
| CC(C)(C)N(CCC(=O)c1cccnc1)Cc1ccccc1 | 100 |
| CC(C)N(CCC(=O)c1cccs1)Cc1ccccc1 | 50 |
| O=C(CCN(c1ccccc1)c1ccccc1)c1ccccn1 | 20 |
| CC(O)CNCCC(=O)c1cnccn1 (stereo not shown) | 50 |
| CC(C)N(CCC(=O)c1ccncc1)C(C)C | 10 |
| CC(C)(C)N(CCO)CCC(=O)c1cnccn1 | 0 |
| CCN(CCO)CCC(=O)c1cc(C)c(C)o1 | 50 |
| O=C(CCN(CCO)Cc1ccccc1)c1ccncc1 | 0 |
| O=C(CCN(CCO)CCO)n1nnc2ccccc21 | 60 |
